# System: rat small-intestinal brush border membrane vesicles
# measurement_description: Inhibitory effect on 33PO4 uptake into rat small-intestinal brush border membrane vesicles (rapid filtration method)
# Type: biochemical, Wistar female rat
# cond: 1 µM test compound; 33PO4 uptake into rat small-intestinal BBMVs, 60 seconds
readout_label: Rate of uptake inhibition (%) (1 µM)
I only need the number, in %, no unit after it.

input: # returns recorded Rate of uptake inhibition (%) (1 µM) (system: rat small-intestinal brush border membrane vesicles) for Cc1c(Cl)ncnc1-c1cc(C(F)(F)F)ccc1NC(=O)C1=C(O)[C@H](C(C)(C)C)N(C)N(Cc2ccc(OCCN3CCOCC3)c(F)c2F)C1=O
output: 68

input: Item: CN1N(Cc2ccc(OCCN(CCO)CCO)c(F)c2F)C(=O)C(C(=O)Nc2ccc(C(F)(F)F)cc2-c2cc(C(F)(F)F)ncn2)=C(O)C12CCC2 Test system: rat small-intestinal brush border membrane vesicles Read-out: Rate of uptake inhibition (%) (1 µM) Value: ?
output: 22

input: Entry CN1N(Cc2cccc(F)c2F)C(=O)C(C(=O)Nc2ccc(Br)c(C(F)(F)F)n2)=C(O)C12CCC2 , system rat small-intestinal brush border membrane vesicles: what Rate of uptake inhibition (%) (1 µM) was measured?
output: 87

input: Write down the reported Rate of uptake inhibition (%) (1 µM) of CC(C)[C@H]1C(O)=C(C(=O)Nc2ccc(C(F)(F)F)cc2-c2ccc(C(F)(F)F)nc2)C(=O)N(Cc2cccc(F)c2F)N1C , test system: rat small-intestinal brush border membrane vesicles.
output: 40

input: Hello, I am looking for reported Rate of uptake inhibition (%) (1 µM) with rat small-intestinal brush border membrane vesicles for C[C@]12CCCN1N(Cc1ccc(F)c(F)c1)C(=O)C(C(=O)Nc1ccc(C(F)(F)F)cc1-c1cc(C(F)(F)F)ncn1)=C2O . Could you help?
output: 91

input: # returns recorded Rate of uptake inhibition (%) (1 µM) (system: rat small-intestinal brush border membrane vesicles) for Cc1cccc(CN2C(=O)C(C(=O)Nc3cc(F)c(Br)c(F)c3)=C(O)[C@@]3(C)CCCN23)c1F
output: 76

input: API: value(readout=Rate of uptake inhibition (%) (1 µM), system=rat small-intestinal brush border membrane vesicles) for record CN1N(Cc2ccc(OCCN3CCN(CCCO)CC3)c(F)c2F)C(=O)C(C(=O)Nc2ccc(C(F)(F)F)cc2-c2cc(C(F)(F)F)ncn2)=C(O)C12CCC2
output: 17

input: Fill in the recorded Rate of uptake inhibition (%) (1 µM) for this compound, with rat small-intestinal brush border membrane vesicles as test system: CN1N(Cc2ccc(OCCN3CCN(CCO)CC3)c(F)c2F)C(=O)C(C(=O)Nc2ccc(C(F)(F)F)cc2-c2cc(C(F)(F)F)ncn2)=C(O)C12CCCC2
output: 33

input: So what Rate of uptake inhibition (%) (1 µM) did C[C@]12CCCN1N(Cc1c(F)cc(C#CCCCCCOC[C@H](O)[C@@H](O)CO)cc1F)C(=O)C(C(=O)Nc1ccc(C(F)(F)F)cc1-c1ccc(C(F)(F)F)nc1)=C2O get with rat small-intestinal brush border membrane vesicles?
output: 81

input: Record lookup: for rat small-intestinal brush border membrane vesicles, what Rate of uptake inhibition (%) (1 µM) belongs to C[C@]12CCCN1N(Cc1c(F)cc(C#CC3(O)CCCC3)cc1F)C(=O)C(C(=O)Nc1ccc(C(F)(F)F)cc1-c1ccc(C(F)(F)F)nc1)=C2O ?
output: 72

input: Notebook: pull reported Rate of uptake inhibition (%) (1 µM) for rat small-intestinal brush border membrane vesicles, entry COCCN(C)CCNc1ccc(CN2C(=O)C(C(=O)Nc3ccc(C(F)(F)F)cc3-c3cc(C(F)(F)F)ncn3)=C(O)C3(CCCC3)N2C)c(F)c1F
output: 48

input: Lookup: Rate of uptake inhibition (%) (1 µM) / rat small-intestinal brush border membrane vesicles / C[C@]12CCCN1N(Cc1ccccc1)C(=O)C(C(=O)Nc1ccc(C(F)(F)F)cc1-c1cc(C(F)(F)F)ncn1)=C2O
output: 93

input: Query Rate of uptake inhibition (%) (1 µM) on rat small-intestinal brush border membrane vesicles for CN1N(Cc2cccc(F)c2F)C(=O)C(C(=O)Nc2cc(C(F)(F)F)ccc2-c2ccc(C(F)(F)F)nc2)=C(O)C1(C)C
output: 41

input: What reported Rate of uptake inhibition (%) (1 µM) corresponds to CSc1ccc(-c2cc(C(F)(F)F)ccc2NC(=O)C2=C(O)[C@@]3(C)CCCN3N(Cc3ccc(CCCCCCC(=O)O)c(F)c3F)C2=O)cn1 on rat small-intestinal brush border membrane vesicles?
output: 85

input: Write down the reported Rate of uptake inhibition (%) (1 µM) of Cc1cccc(CN2C(=O)C(C(=O)Nc3ccc(C(F)(F)F)cc3-c3ccc(C(F)(F)F)nc3)=C(O)[C@@]3(C)CCCN23)c1F , test system: rat small-intestinal brush border membrane vesicles.
output: 86

input: Param readout= Rate of uptake inhibition (%) (1 µM); system= rat small-intestinal brush border membrane vesicles; entry= CN1N(Cc2cccc(F)c2F)C(=O)C(C(=O)Nc2ccc(Cl)cc2-c2cc(C(F)(F)F)ncn2)=C(O)C12CCCC2 ; returns value.
output: 77

input: Which Rate of uptake inhibition (%) (1 µM) is reported with rat small-intestinal brush border membrane vesicles for this entry: CSc1ncc(-c2cc(C(F)(F)F)ccc2NC(=O)C2=C(O)[C@@]3(C)CCCN3N(Cc3ccc(OCCN4CCOCC4)c(F)c3F)C2=O)cn1 ?
output: 73

====

# System: rat small-intestinal brush border membrane vesicles
# measurement_description: Inhibitory effect on 33PO4 uptake into rat small-intestinal brush border membrane vesicles (rapid filtration method)
# Format: biochemical, Wistar female rat
# cond: 1 µM test compound; 33PO4 uptake into rat small-intestinal BBMVs, 60 seconds
Param threshold (40%) applies to Rate of uptake inhibition (%) (1 µM); output t when value >= threshold, f when value < threshold.

input: Assess whether reported Rate of uptake inhibition (%) (1 µM) for C[C@]12CCCN1N(Cc1ccc(OCCN3CCOCC3)c(Cl)c1)C(=O)C(C(=O)Nc1ccc(C(F)(F)F)cc1-c1ccc(C(F)(F)F)nc1)=C2O sits at 40% or higher.
output: t

input: I'd appreciate it if you could say whether C[C@]12CCCN1N(Cc1cccc(F)c1Cl)C(=O)C(C(=O)Nc1cc(F)c(Br)c(F)c1)=C2O has Rate of uptake inhibition (%) (1 µM) at least equal to 40%.
output: t

input: Hello, I need to know if COC[C@@H]1CCCN1CCOc1ccc(CN2C(=O)C(C(=O)Nc3ccc(C(F)(F)F)cc3-c3cc(C(F)(F)F)ncn3)=C(O)C3(CCCC3)N2C)c(F)c1F has measured Rate of uptake inhibition (%) (1 µM) not below 40%. Thanks!
output: f

input: Could you tell me if the measured Rate of uptake inhibition (%) (1 µM) of COCCN(C)CCOCCOCCOCCOc1ccc(CN2C(=O)C(C(=O)Nc3ccc(C(F)(F)F)cc3-c3cc(C(F)(F)F)ncn3)=C(O)C3(CCCC3)N2C)c(F)c1F reaches 40% or more?
output: f

input: Please indicate if the recorded Rate of uptake inhibition (%) (1 µM) for CN1N(Cc2ccc(OCCCCOCCO)c(F)c2F)C(=O)C(C(=O)Nc2ccc(C(F)(F)F)cc2-c2cc(C(F)(F)F)ncn2)=C(O)C12CCCC2 meets or exceeds 40%.
output: f

input: Entry C[C@]12CCCN1N(Cc1cccc(F)c1F)C(=O)C(C(=O)Nc1ccc(Cl)cc1-c1ccc(C(F)(F)F)nc1)=C2O : is its Rate of uptake inhibition (%) (1 µM) no less than 40%?
output: t

input: Textbook exercise: given the entry C[C@]12CCCN1N(Cc1cccc(F)c1F)C(=O)C(C(=O)Nc1ccc(Br)cn1)=C2O , state whether its Rate of uptake inhibition (%) (1 µM) is greater than or equal to 40%.
output: t

input: Reported Rate of uptake inhibition (%) (1 µM) reaches at least 40% for CSc1ccc(-c2cc(C(F)(F)F)ccc2NC(=O)C2=C(O)[C@@]3(C)CCCN3N(Cc3ccc(C#CCCCCC(=O)O)c(F)c3F)C2=O)cn1 ?
output: t

input: Is it the case that CN1N(Cc2ccc(OCCn3cncn3)c(F)c2F)C(=O)C(C(=O)Nc2ccc(C(F)(F)F)cc2-c2cc(C(F)(F)F)ncn2)=C(O)C12CCC2 has Rate of uptake inhibition (%) (1 µM) reaching or exceeding 40%?
output: f

input: Confirm if Rate of uptake inhibition (%) (1 µM) reported for the compound CN1N(Cc2ccc(OCCCCOCCCO)c(F)c2F)C(=O)C(C(=O)Nc2ccc(C(F)(F)F)cc2-c2cc(C(F)(F)F)ncn2)=C(O)C12CCCC2 is 40% or above.
output: t

input: # bool: Rate of uptake inhibition (%) (1 µM) of C[C@]12CCCN1N(Cc1cccc(Cl)c1)C(=O)C(C(=O)Nc1cc(F)c(Br)c(F)c1)=C2O >= 40%
output: t

input: API: above_or_equal(metric=Rate of uptake inhibition (%) (1 µM), cutoff=40%) for item C[C@]12CCCN1N(Cc1cccc(F)c1F)C(=O)C(C(=O)Nc1ccc(Br)cc1-c1cc(C(F)(F)F)ncn1)=C2O
output: t

input: Is Rate of uptake inhibition (%) (1 µM) for CC(C)(C)[C@H]1C(O)=C(C(=O)Nc2cc(F)c(Br)c(F)c2)C(=O)N(Cc2cccc(F)c2F)N1CC(F)(F)F at or above 40%?
output: t

input: I'd appreciate it if you could say whether COCCN(C)CCOc1c(I)cc(CN2C(=O)C(C(=O)Nc3ccc(C(F)(F)F)cc3-c3cc(C(F)(F)F)ncn3)=C(O)C3(CCCC3)N2C)c(F)c1F has Rate of uptake inhibition (%) (1 µM) at least equal to 40%.
output: t

input: For this compound, is measured Rate of uptake inhibition (%) (1 µM) 40% or higher? C[C@]12CCCN1N(Cc1ccccc1F)C(=O)C(C(=O)Nc1ccc(C(F)(F)F)cc1-c1ccc(C(F)(F)F)nc1)=C2O
output: t

input: Quick check: does C[C@]12CCCN1N(Cc1cccc([N+](=O)[O-])c1)C(=O)C(C(=O)Nc1ccc(Br)c(F)c1)=C2O have Rate of uptake inhibition (%) (1 µM) greater than or equal to 40%?
output: t

This collection of values is drawn from patent EP2975030B1.
